Origin of measurements: patent US7030125B2

- TARGET OF ASSAY: ALK-5 (TβRI) (Homo sapiens)
- Sequence (P36897 205-495 limits assumed, species assumed): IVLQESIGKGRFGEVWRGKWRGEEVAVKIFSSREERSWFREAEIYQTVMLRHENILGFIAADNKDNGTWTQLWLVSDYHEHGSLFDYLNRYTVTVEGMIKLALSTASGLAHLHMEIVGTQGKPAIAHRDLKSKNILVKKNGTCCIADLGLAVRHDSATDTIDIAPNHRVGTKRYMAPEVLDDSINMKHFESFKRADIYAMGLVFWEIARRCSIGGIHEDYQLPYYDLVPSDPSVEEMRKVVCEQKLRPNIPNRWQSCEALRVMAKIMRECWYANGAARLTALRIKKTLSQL

SMI | IC50
COc1ccc2nccc(-c3conc3-c3cccc(C)n3)c2c1 | ~118 nM
